Target: Botulinum neurotoxin type A (Clostridium botulinum, UniProt P0DPI0)
Sequence (P0DPI0 2-448 limits assumed): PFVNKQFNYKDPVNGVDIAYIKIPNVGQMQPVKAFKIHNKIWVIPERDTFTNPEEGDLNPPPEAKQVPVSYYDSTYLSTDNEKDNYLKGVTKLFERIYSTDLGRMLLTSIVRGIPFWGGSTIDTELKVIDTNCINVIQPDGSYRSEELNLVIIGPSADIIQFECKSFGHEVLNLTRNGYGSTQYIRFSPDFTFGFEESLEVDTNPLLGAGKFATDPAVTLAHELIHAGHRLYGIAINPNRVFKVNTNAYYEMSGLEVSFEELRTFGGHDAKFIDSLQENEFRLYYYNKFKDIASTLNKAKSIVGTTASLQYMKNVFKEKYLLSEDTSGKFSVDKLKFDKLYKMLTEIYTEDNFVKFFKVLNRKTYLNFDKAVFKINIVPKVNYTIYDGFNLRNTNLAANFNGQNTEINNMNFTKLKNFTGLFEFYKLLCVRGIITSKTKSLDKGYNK
Property Name: IC50 (µM)
Give a bare numeral; the unit µM is implied.

Reference set (3 entries):
Molecule Smiles | Unit Of Measure | IC50
O=C(C[C@@H](CCO)c1ccc(Cl)cc1Cl)NO | µM | 1
O=C(C[C@H](CCO)c1ccc(Cl)cc1)NO | µM | 36
O=C(C[C@H](CCO)c1ccc(Cl)cc1Cl)NO | µM | 21

# ---- query molecule ----
Summary: O=C(C[C@@H](CCO)c1ccc(Cl)cc1)NO , Botulinum neurotoxin type A (Clostridium botulinum, UniProt P0DPI0), IC50 = 8
